We begin with a simple list: items and their reported CC50.
Test: in vitro
Conditions: dog
The reply should be a number in µM, with the unit left off.

These recorded examples may help you get a feel for the data.
NC12CC3CC(CC(C3)C1)C2    584
CC(=O)N[C@H]1[C@H]([C@H](O)[C@H](O)CO)OC(C(=O)O)=C[C@@H]1N=C(N)N    1110
CCOC(=O)C1=C[C@@H](OC(CC)CC)[C@H](NC(C)=O)[C@@H](N)C1    516

Now consider a different compound.
Exercise: Any idea what CC50 was measured for NC(=O)c1nc(F)c[nH]c1=O ?
Solution: 1250

Recorded values, source paper PMC9909137.
